Test system: SNB-75
experiment summary: NCI tumour cell line growth inhibition, 48 h
Calls of active or inactive are those of the source. Rule as the data show it: active = GI50 up to about 1.1 µM and inactive = higher.
Permitted responses: yes (1) for active, no (0) for inactive

Observe how each entry below is paired with its result.
compound	assayed system	label value
CC1(C)CCC2=C(O1)c1ccccc1/C(=N/c1ccc([N+](=O)[O-])cc1)C2=O	SNB-75	no (0)
[N-]=[N+]=Nc1ccc(CNc2cc(=O)[nH]c(=O)[nH]2)cc1	SNB-75	no (0)
Cc1cc([C@H](C#N)c2nc3ccccc3[nH]2)nc(Cl)n1	SNB-75	no (0)
CCOC(=O)CCC(C(=O)OCC)n1nnc2ccc(Nc3c(C)[n+]([O-])c4cc(F)c(OCC)cc4[n+]3[O-])cc21 (stereo not given)	SNB-75	no (0)
CC(=O)Oc1c(C)c(-c2ccccc2)c(C)c(-c2ccccc2)c1C(=S)c1ccccc1	SNB-75	no (0)
Cn1sc2ccccc2c1=S	SNB-75	no (0)
COc1nc(NC2OCC(OC(C)=O)C(OC(C)=O)C2OC(C)=O)c(-c2csc(N)n2)c(=O)n1C (stereo not given)	SNB-75	no (0)
Cc1c(O)c(OC2OC(CO)C(O)C(O)C2O)cc2c1CC[C@@H]1C2(C)C(=O)C[C@]2(C)[C@@H]([C@@](C)(O)C3CCC(C)(C)O3)[C@H](O)C[C@@]12C (stereo not given in full)	SNB-75	no (0)

**Query** // return assay outcome for Cc1nc(=O)[nH]c2c1C(=O)N(C(C)C)C(NC(C)C)S2 (stereo not given)
**Result** no (0)

**Query** // return assay outcome for CCOC(=O)CCCOc1cc(-c2ccccc2F)nc2cc3c(cc12)OCO3
**Result** no (0)

**Query** // return assay outcome for CC1=NOC(C)(O)/C1=N/O (stereo not given)
**Result** no (0)

**Query** // return assay outcome for CCCCCCCCCCCCCCCCC1=CC(=O)C=C(OC)C1=O
**Result** no (0)

**Query** // return assay outcome for C=CCNc1ccc(C)cc1
**Result** no (0)

====

Tested on: SF-268
experiment summary: NCI tumour cell line growth inhibition, 48 h
Active and inactive are the calls of the source. Cut-off read from the data, not from the text of the source: active = GI50 up to about 1.1 µM and inactive = higher.
Permitted responses: 1 for active, -1 for inactive

compound	assayed system	label value
C=C(C)C(=O)O[C@@H]1C/C(C)=C\[C@H](OC(C)=O)C[C@](C)(O)/C=C2/OC(=O)C(COC(C)=O)=C21	SF-268	1
CCOC(=O)c1c(-c2ccc(O)c(OC)c2)c(C#N)c(=S)n(C2OC(CO)C(O)C(O)C2O)c1-c1ccccc1 (stereo unspecified)	SF-268	-1
CC(C)Cn1cnc2c(Sc3c([N+](=O)[O-])ncn3C)nc(N)nc21	SF-268	-1

**Query** // return assay outcome for O=NN(CCCl)C(=O)NC1CCC(CC2CCC(NC(=O)N(CCCl)N=O)CC2)CC1 (stereo unspecified)
**Result** 1

**Query** // return assay outcome for CCN(CCCl)c1cccc(NC(=O)c2ccc(C(=O)Nc3cccc(CN(C)C)c3)cc2)c1
**Result** 1

**Query** // return assay outcome for CC(=O)OCC1OC(Nc2nc(O)n(C)c(=O)c2-c2csc(N)n2)C(OC(C)=O)C(OC(C)=O)C1OC(C)=O (stereo unspecified)
**Result** -1

**Query** // return assay outcome for Cc1cccc(C)c1NC(=O)CCCC(=O)C(C#N)c1ccccc1 (stereo unspecified)
**Result** -1

**Query** // return assay outcome for Cc1cc(-c2nc3cc(F)c(F)cc3s2)ccc1N
**Result** -1

**Query** // return assay outcome for N#CC1=C(N)N(/N=C/c2ccccc2)C(c2ccccc2)C1(C#N)C#N (stereo unspecified)
**Result** -1

**Query** // return assay outcome for CC12CCC(Br)C(C)(C)C1CC=C1C(=O)OCC1O2 (stereo unspecified)
**Result** -1

**Query** // return assay outcome for C[n+]1c2ccccc2c(C(=O)Nc2ccc(S(=O)(=O)N=C(N)N)cc2)c2ccccc21
**Result** -1

**Query** // return assay outcome for Cc1c(O)c(OC2OC(CO)C(O)C(O)C2O)cc2c1CC[C@@H]1C2(C)C(=O)C[C@]2(C)[C@@H]([C@@](C)(O)C3CCC(C)(C)O3)[C@H](O)C[C@@]12C (stereo partly specified)
**Result** -1

**Query** // return assay outcome for CC1(C)CCC2=C(O1)c1ccccc1/C(=N/c1ccc([N+](=O)[O-])cc1)C2=O
**Result** -1

**Query** // return assay outcome for COc1ccc2cc3n(c(=O)c2c1)CCc1c-3cc(OC)c(OC)c1OC
**Result** -1

**Query** // return assay outcome for NC(CCCCP(=O)(O)O)C(=O)O (stereo unspecified)
**Result** -1

**Query** // return assay outcome for Cc1ccc([N+](=O)[O-])cc1S(=O)(=O)Nc1ccc(C2=NN(C(=O)c3ccccc3)C(c3cccs3)C2)cc1 (stereo unspecified)
**Result** -1

**Query** // return assay outcome for O=C1OC(CC(=O)c2ccc(Cl)c(Cl)c2)C(Cl)=C1Cl (stereo unspecified)
**Result** -1

**Query** // return assay outcome for Cc1nc(C(=O)O)c2ccccc2n1
**Result** -1

**Query** // return assay outcome for COc1cc(C2c3cc(O)c(OC)cc3C3OCC2C3CO)ccc1O (stereo unspecified)
**Result** -1

**Query** // return assay outcome for NC(CO)c1ccccc1 (stereo unspecified)
**Result** -1

**Query** // return assay outcome for Cc1cc(S(=O)(=O)Nc2nc3ccsc3c(=O)n2N)c(S)cc1Cl
**Result** -1

The measured values listed here are drawn from ChEMBL document CHEMBL1201862.
